Molecular target: T1, alpha subunit of the human FcεRI receptor (IgE high affinity receptor), expressed on Chinese hamster ovary … (human, UniProt P12319 26-257)
T1 construct: whole, on cells; also called CHO FcεRI+ cells; FcεRIα
T1 sequence (looked up): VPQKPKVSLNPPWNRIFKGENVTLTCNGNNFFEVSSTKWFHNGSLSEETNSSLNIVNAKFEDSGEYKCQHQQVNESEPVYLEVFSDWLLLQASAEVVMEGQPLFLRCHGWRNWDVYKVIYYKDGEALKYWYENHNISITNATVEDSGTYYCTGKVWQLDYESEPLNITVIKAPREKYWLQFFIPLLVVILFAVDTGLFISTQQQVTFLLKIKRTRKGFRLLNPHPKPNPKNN
Assay: inhibition of 125I-IgE binding to CHO cells expressing human FcεRI alpha; competitor IgE
Where no end group is shown, it is not given here.
experimentalReadout: IC50 (nM)
The figure you give is taken to be in nM; do not add the unit.

Q) Find the recorded IC50 belonging to VQCPHFCYVGGHALCPDVCYVGR (not fully specified (bridges); cysteine pairing not given here, produced as Z-domain fusion in E. coli and released with trypsin) [IGE132] and report it.
A) 80

Q) Repeat for the following binder: IVCPRLCYELDYELCPDVCYV-NH2 (cysteine pairing not given here) [IGE141]
A) 131

Q) Repeat for the following binder: VQCPHFCYELFSRLCPDVCYV-NH2 (disulfide (positions not given here); also: two disulfides, pairing not settled) [IGE182]
A) 80

Q) Repeat for the following binder: VQCPHFCYDASELCPDVCYV-NH2 (disulfide (positions not given here); not fully specified (bridges); printed as VQCPHFCYDASELCPDVCYV-nh2) [IGE196]
A) 90

Q) Repeat for the following binder: QCPHFCYELDYELCPDVCY-NH2 (not fully specified (bridges); cysteine pairing not given here) [IGE157]
A) 107
